# tested_system: MAPKAPK2 (MK-2) (Homo sapiens)
# run_description: Determination of MK-2 IC50 (HSP-peptide phosphorylation, anion exchange resin capture assay)
# Format: biochemical
# run_conditions: Table 2, pyrazolylpyrazole MK-2 inhibitors; read-out: MK-2 Avg. IC50
pIC50: −log10 of the molar value.
Below: a set of entries, each annotated with reported pIC50.

Sample answers from the record:
molecule | tested_system | pIC50
CCOC(=O)c1c2c(nn1CC(F)(F)F)-c1cn[nH]c1CC2 | MAPKAPK2 (MK-2) (Homo sapiens) | ≤ 3.70
NCCCn1nc2c(c1C(=O)O)CCc1[nH]ncc1-2 | MAPKAPK2 (MK-2) (Homo sapiens) | 5.66
CCOC(=O)c1[nH]nc2c1CCc1c-2cnn1CCO | MAPKAPK2 (MK-2) (Homo sapiens) | ≤ 3.70

# compound CNC(=O)c1nn(-c2ccc(S(N)(=O)=O)cc2)c2c1CCc1c-2cnn1Cc1ccccc1 ; its pIC50 = ≤ 3.70

# compound O=C(O)c1c2c(nn1CC(F)(F)F)-c1cn[nH]c1CC2 ; its pIC50 = 3.82

# compound C=CCSc1n[nH]c2c1-c1nn(CCCN)c(C(=O)OCC)c1CC2 ; its pIC50 = 3.94

# compound CC(C)(C)OC(=O)NCCCn1nc2c(c1C(N)=O)CCc1[nH]ncc1-2 ; its pIC50 = ≤ 3.70

# compound CCOC(=O)c1c2c(nn1CCNC(=O)OC(C)(C)C)-c1cnn(C(c3ccccc3)(c3ccccc3)c3ccccc3)c1CC2 ; its pIC50 = ≤ 3.70

---

# tested_system: MAPKAPK2 (MK-2) (Homo sapiens)
# run_description: Determination of MK-2 IC50 (HSP-peptide phosphorylation, anion exchange resin capture assay)
# Type: biochemical
# run_conditions: read-out: MK-2 Avg. IC50
Mark 1 only when IC50 stays strictly below 80 nM. Values equal to the cut-off are 0.

molecule | label
NCCCn1nc2c(c1C(=O)O)CCc1cnc(-c3cccc(C(F)(F)F)c3)cc1-2 [Example 12] | 1
COc1cccc(-c2cc3c(cn2)CCc2c-3nn(CCCN)c2C(=O)O)c1 [Example 14] | 1
O=C(O)c1c2c(nn1CCCNCCc1cccs1)-c1ccncc1CC2 [Example 41] | 0

Report whether reported IC50 is lower than 80 nM (strictly) for NCCCn1nc2c(c1C(=O)O)CCc1cnc(-c3cnc4ccccc4c3)cc1-2 [Example 1]
1

Report whether reported IC50 is lower than 80 nM (strictly) for O=C(O)c1c2c(nn1CCCNCCc1ccc(-c3csc4ccccc34)cc1)-c1ccncc1CC2 [Example 60]
0

Report whether reported IC50 is lower than 80 nM (strictly) for NCCCn1nc2c(c1C(=O)O)CCc1cnc(-c3cccc(O)c3)cc1-2 [Example 4]
1

Report whether reported IC50 is lower than 80 nM (strictly) for COc1ccc(-c2cc3c(cn2)CCc2c-3nn(CCCN)c2C(=O)O)cc1 [Example 10]
1

Report whether reported IC50 is lower than 80 nM (strictly) for O=C(O)c1c2c(nn1CCCNCCc1ccc(-c3ccccc3)cc1)-c1ccncc1CC2 [Example 44]
0

Report whether reported IC50 is lower than 80 nM (strictly) for O=C1NCCn2nc3c(c21)CCc1cnc(/C=C/c2ccc(O)cc2)cc1-3 [Example 29]
0

Report whether reported IC50 is lower than 80 nM (strictly) for N#Cc1ccc(CCCNCCCn2nc3c(c2C(=O)O)CCc2cnccc2-3)cc1 [Example 58]
0

Report whether reported IC50 is lower than 80 nM (strictly) for COc1ccccc1-c1cc2c(cn1)CCc1c-2nn(CCCN)c1C(=O)O [Example 66]
0

Report whether reported IC50 is lower than 80 nM (strictly) for CC(C)c1cccc(-c2ccc(CCNCCCn3nc4c(c3C(=O)O)CCc3cnccc3-4)cc2)c1 [Example 40]
0

Report whether reported IC50 is lower than 80 nM (strictly) for Nc1ccc(NCCCn2nc3c(c2C(=O)O)CCc2cnccc2-3)cc1 [Example 158]
0

Report whether reported IC50 is lower than 80 nM (strictly) for NCCCn1nc2c(c1C(=O)O)CCc1cnc(-c3ccc(O)cc3)cc1-2 [Example 3]
1

Report whether reported IC50 is lower than 80 nM (strictly) for COc1ccc(-c2cc3c(cn2)CCc2c-3nn3c2C(=O)NCCC3)cc1 [Example 25]
0

Report whether reported IC50 is lower than 80 nM (strictly) for O=C(O)c1c2c(nn1CCCNCCCc1ccc(Br)cc1)-c1ccncc1CC2 [Example 38]
0

Report whether reported IC50 is lower than 80 nM (strictly) for O=C1NCCn2nc3c(c21)CCc1cnc(-c2cccc(O)c2)cc1-3 [Example 27]
0

Report whether reported IC50 is lower than 80 nM (strictly) for O=C1NCCCn2nc3c(c21)CCc1cnc(Nc2ccccc2)cc1-3 [Example 131]
0

---

# tested_system: MK-3 (Homo sapiens)
# Sequence (Q16644 whole entry, species assumed): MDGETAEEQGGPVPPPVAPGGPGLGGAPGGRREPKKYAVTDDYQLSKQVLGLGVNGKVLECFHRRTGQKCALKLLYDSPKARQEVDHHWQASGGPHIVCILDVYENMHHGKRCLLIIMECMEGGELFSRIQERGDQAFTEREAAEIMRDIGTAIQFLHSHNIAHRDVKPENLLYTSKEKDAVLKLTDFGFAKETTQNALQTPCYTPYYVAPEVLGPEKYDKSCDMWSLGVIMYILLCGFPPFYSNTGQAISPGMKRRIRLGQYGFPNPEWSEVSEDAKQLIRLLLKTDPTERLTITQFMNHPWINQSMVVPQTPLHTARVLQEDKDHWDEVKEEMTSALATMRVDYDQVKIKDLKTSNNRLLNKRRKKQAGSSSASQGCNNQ
# run_description: MK-3 inhibition IC50 (similar method to MK-2, with appropriate modifications)
# Format: biochemical
# run_conditions: read-out: MK-3 Avg. IC50
Mark satisfied only when IC50 stays strictly below 9 µM. Values equal to the cut-off are not satisfied.

Before answering, review these 6 worked examples.
molecule | tested_system | label
O=C1NCCCn2nc3c(c21)CCc1cnc(-c2ccc(O)cc2)cc1-3 | MK-3 (Homo sapiens) | satisfied
O=C(O)c1c2c(nn1CCCNCCc1ccc(-c3cccc(Cl)c3)cc1)-c1ccncc1CC2 | MK-3 (Homo sapiens) | satisfied
COc1ccc(-c2cc3c(cn2)CCc2c-3nn(CCCN)c2C(=O)O)cc1 | MK-3 (Homo sapiens) | satisfied
NCCn1nc2c(c1C(=O)O)CCc1cnccc1-2 | MK-3 (Homo sapiens) | not satisfied
O=C1NCCn2nc3c(c21)CCc1cnc(/C=C/c2ccccc2)cc1-3 | MK-3 (Homo sapiens) | not satisfied
O=C1NCCn2nc3c(c21)CCc1cnc(-c2cccc4cccnc24)cc1-3 | MK-3 (Homo sapiens) | not satisfied

Report whether reported IC50 is lower than 9 µM (strictly) for NCCCn1nc2c(c1C(=O)O)CCc1cnc(-c3ccc(C(F)(F)F)cc3)cc1-2
satisfied

Report whether reported IC50 is lower than 9 µM (strictly) for COc1cccc(-c2cc3c(cn2)CCc2c-3nn(CCCN)c2C(=O)O)c1
satisfied

Report whether reported IC50 is lower than 9 µM (strictly) for O=C(O)c1c2c(nn1CCCNCCCc1ccc(Br)cc1)-c1ccncc1CC2
not satisfied

Report whether reported IC50 is lower than 9 µM (strictly) for CS(=O)(=O)c1ccc(CCCNCCCn2nc3c(c2C(=O)O)CCc2cnccc2-3)cc1
not satisfied

Report whether reported IC50 is lower than 9 µM (strictly) for NCCCn1nc2c(c1C(=O)O)CCc1cnc(-c3ccc(O)cc3)cc1-2
satisfied

Report whether reported IC50 is lower than 9 µM (strictly) for O=C1NCCn2nc3c(c21)CCc1cnc(-c2cccc(O)c2)cc1-3
satisfied

Report whether reported IC50 is lower than 9 µM (strictly) for NCCCn1nc2c(c1C(=O)O)CCc1cnc(-c3cnc4ccccc4c3)cc1-2
satisfied

Report whether reported IC50 is lower than 9 µM (strictly) for CC(=O)c1ccc(CCCNCCCn2nc3c(c2C(=O)O)CCc2cnccc2-3)cc1
not satisfied

Report whether reported IC50 is lower than 9 µM (strictly) for NCCCn1nc2c(c1C(=O)O)CCc1cnc(-c3ccc4c(c3)OCO4)cc1-2
satisfied

Report whether reported IC50 is lower than 9 µM (strictly) for COc1ccc(-c2cc3c(cn2)CCc2c-3nn3c2C(=O)NCCC3)cc1
satisfied

Report whether reported IC50 is lower than 9 µM (strictly) for CCOc1ccc(CCNCCCn2nc3c(c2C(=O)O)CCc2cnccc2-3)cc1
not satisfied

---

Below: a set of entries, each annotated with reported IC50.
# tested_system: MAPKAPK2 (MK-2) (Homo sapiens, UniProt P49137)
# Sequence (P49137 whole entry, species assumed): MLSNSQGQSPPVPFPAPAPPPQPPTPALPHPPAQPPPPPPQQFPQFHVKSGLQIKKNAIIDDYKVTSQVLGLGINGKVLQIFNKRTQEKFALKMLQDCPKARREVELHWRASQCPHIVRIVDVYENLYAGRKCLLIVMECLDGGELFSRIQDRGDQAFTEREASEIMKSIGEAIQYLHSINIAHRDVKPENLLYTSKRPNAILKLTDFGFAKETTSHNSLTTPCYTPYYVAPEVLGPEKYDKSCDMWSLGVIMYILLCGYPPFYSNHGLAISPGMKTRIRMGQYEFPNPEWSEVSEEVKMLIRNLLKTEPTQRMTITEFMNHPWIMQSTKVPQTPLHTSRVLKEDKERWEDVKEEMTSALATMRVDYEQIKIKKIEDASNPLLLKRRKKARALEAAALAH
# run_description: Determination of MK-2 IC50 (HSP-peptide phosphorylation, anion exchange resin capture assay)
# Assay type: biochemical
# run_conditions: read-out: MK-2 Avg. IC50
Answer in nM, number only, no unit symbol.

compound | uom | IC50
O=C1NCCCn2nc3c(c21)CCc1cnc(-c2ccc(O)cc2)cc1-3 [Example 31] | nM | 183
O=C1NCCCn2nc3c(c21)CCc1cnc(-c2cnc4ccccc4c2)cc1-3 [Example 30] | nM | 171
NCCCn1nc2c(c1C(=O)O)CCc1cnc(-c3cccc([N+](=O)[O-])c3)cc1-2 [Example 2] | nM | 18
NCCCn1nc2c(c1C(N)=O)CCc1cnc(-c3cnc4ccccc4c3)cc1-2 [Example 51] | nM | 473

O=C(O)c1c2c(nn1CCCNCCc1ccc(-c3ccccc3Cl)cc1)-c1ccncc1CC2 [Example 32] on MAPKAPK2 (MK-2) (Homo sapiens, UniProt P49137) gives IC50 = 185

---

Below: a set of entries, each annotated with reported IC50.
# tested_system: MAPKAPK2 (MK-2) (Homo sapiens, UniProt P49137)
# run_description: Determination of MK-2 IC50 (HSP-peptide phosphorylation, anion exchange resin capture assay)
# Format: biochemical
# run_conditions: Table 2, pyrazolylpyrazole MK-2 inhibitors; read-out: MK-2 Avg. IC50
Answer in µM, number only, no unit symbol.

Sample answers from the record:
molecule | endpoint_name | value_reported
O=C(O)c1c2c(nn1CCCNCCc1cccs1)-c1cn[nH]c1CC2 | IC50 | 3.66
CSc1n[nH]c2c1-c1nn3c(c1CC2)C(=O)NCCC3 | IC50 | 10.5
CCOC(=O)c1c2c(nn1CCCNCCc1ccc(Br)cc1)-c1cn[nH]c1CC2 | IC50 | 8.54
CCOC(=O)c1c2c(nn1CCCNCCc1ccsc1)-c1cn[nH]c1CC2 | IC50 | 133
NC(=O)c1nn(CCO)c2c1CCc1[nH]ncc1-2 | IC50 | 72.2

Now turn to the next molecule.
# molecule O=C(O)c1c2c(nn1CCCNCCc1ccsc1)-c1cn[nH]c1CC2 ; its IC50 = 7.84
